Please respond with reported mass density for every item in the list.
Conditions: 353.15 K; 200 kPa; Liquid; Other PVT measurement
Give bare numbers, in kg/m3.

[[record]]
molecule = "CCO [ethanol]"
reportedvalue = 734

[[record]]
molecule = "CC#N [acetonitrile]"
reportedvalue = 710

[[record]]
molecule = "CCCCn1cc[n+](C)c1.F[B-](F)(F)F [1-butyl-3-methylimidazolium tetrafluoroborate]"
reportedvalue = 1159


Pending molecule:
Consider the molecule O [water] and give its recorded mass density.
975

Attribution: the NIST ThermoML archive (doi:10.1021/je900048r)
